Just for reference, patent US12502393B2 is where these values come from.

- Test system: Human Platelets
- testName: Total cGMP in human platelets
- Assay type: cell-based
- measurementSetup: 1 μM riociguat and 100 nM BAY 190954, incubation 2 h
valueType: Ratio Maximum cGMP increase vs Baseline
When you answer, write just the number.

# example entries with known answers
compound | Ratio Maximum cGMP increase vs Baseline
CCCc1nc(C)c2c(=O)[nH]c(-c3cc(S(=O)(=O)N4CCC([C@@H](O)CO)CC4)ccc3OCC)nn12 [Compound 25] | 23.3
CCCc1nc(C)c2c(=O)[nH]c(-c3cc(S(=O)(=O)N4CCC([C@@H](O)CO[N+](=O)[O-])CC4)ccc3OCC)nn12 [Compound 2c] | 105.4

Task: Notebook entry, Human Platelets assay: Ratio Maximum cGMP increase vs Baseline of CCCc1nc(C)c2c(=O)[nH]c(-c3cc(S(=O)(=O)N4CCC(CC(CO)CO[N+](=O)[O-])CC4)ccc3OCC)nn12 (stereo not drawn) [Compound 2n] = ?
Output: 161.0
